Assay: total protein half-life in vivo (active degradation + dilution); higher = more stable protein
Settings: wild type E. coli NCM3722; growth: C-lim chemostat; doubling time 12 h
METRIC_NAME: total protein half-life in vivo (h)
Give just the numeric value; h need not be written.

Problem: For the sequence shown here, MERVSITERPDWREKAHEYGFNFHTMYGEPYWCEDAYYKLTLAQVEKLEEVTAELHQMCLKVVEKVIASDELMTKFRIPKHTWSFVRQSWLTHQPSLYSRLDLAWDGTGEPKLLENNADTPTSLYEAAFFQWIWLEDQLNAGNLPEGSDQFNSLQEKLIDRFVELREQYGFQLLHLTCCRDTVEDRGTIQYLQDCATEAEIATEFLYIDDIGLGEKGQFTDLQDQVISNLFKLYPWEFMLREMFSTKLEDAGVRWLEPAWKSIISNKALLPLLWEMFPNHPNLLPAYFAEDDHPQMEKYVVKPIFSREGANVSIIENGKTIEAAEGPYGEEGMIVQQFHPLPKFGDSYMLIGSWLVNDQPAGIGIREDRALITQDMSRFYPHIFVE [P0ADT5] , give the reported total protein half-life in vivo.
Result: 9.63

* * *

Test: total protein half-life in vivo (active degradation + dilution); higher = more stable protein
Conditions: wild type E. coli NCM3722; growth: N-lim chemostat; doubling time 12 h
METRIC_NAME: total protein half-life in vivo (h)
Please reply with the bare figure in h and do not write the unit itself.

SEQUENCE_STRING	total protein half-life in vivo / h
MPDSRKARRIADPGLQPERTSLAWFRTMLGYGALMALAIKHNWHQAGMLFWISIGILAIVALILWHYTRNRNLMDVTNSDFSQFHVVRDKFLISLAVLSLAILFAVTHIHQLIVFIERVA [P0ADL6]	8.68

Query sequence follows.
Problem: Name the recorded total protein half-life in vivo for "MSSNFRHQLLSLSLLVGIAAPWAAFAQAPISSVGSGSVEDRVTQLERISNAHSQLLTQLQQQLSDNQSDIDSLRGQIQENQYQLNQVVERQKQILLQIDSLSSGGAAAQSTSGDQSGAAASTTPTADAGTANAGAPVKSGNANTDYNAAIALVQDKSRQDDAMVAFQNFIKNYPDSTYLPNANYWLGQLNYNKGKKDDAAYYFASVVKNYPKSPKAADAMFKVGVIMQDKGDTAKAKAVYQQVISKYPGTDGAKQAQKRLNAM" .
Result: 11.3

* * *

Assay: total protein half-life in vivo (active degradation + dilution); higher = more stable protein
Conditions: wild type E. coli NCM3722; growth: C-lim chemostat; doubling time 12 h
Classify as follows. Reported total protein half-life in vivo greater than or equal to 9 h: MET. Reported total protein half-life in vivo below: NOT MET.

SEQUENCE_STRING	CLASS
MCTTCGCGEGNLYIEGDEHNPHSAFRSAPFAPAARPKMKITGIKAPEFTPSQTEEGDLHYGHGEAGTHAPGMSQRRMLEVEIDVLDKNNRLAERNRARFAARKQLVLNLVSSPGSGKTTLLTETLMRLKDSVPCAVIEGDQQTVNDAARIRATGTPAIQVNTGKGCHLDAQMIADAAPRLPLDDNGILFIENVGNLVCPASFDLGEKHKVAVLSVTEGEDKPLKYPHMFAAASLMLLNKVDLLPYLNFDVEKCIACAREVNPEIEIILISATSGEGMDQWLNWLETQRCA [P0AAN3]	NOT MET

Problem: Dear colleague, could you confirm whether "MCGRFAQSQTREDYLALLAEDIERDIPYDPEPIGRYNVAPGTKVLLLSERDEHLHLDPVFWGYAPGWWDKPPLINARVETAATSRMFKPLWQHGRAICFADGWFEWKKEGDKKQPFFIYRADGQPIFMAAIGSTPFERGDEAEGFLIVTAAADQGLVDIHDRRPLVLSPEAAREWMRQEISGKEASEIAASGCVPANQFSWHPVSRAVGNVKNQGAELIQPV" has total protein half-life in vivo at or above 9 h?
Result: MET

Problem: # iterate: "MIREAQRSELPAILELWLESTTWGHPFIKANYWRDCIPLVRDAYLANAQNWVWEEDGKLLGFVSIMEGRFLAAMFVAPKAVRRGIGKALMQYVQQRHPHLMLEVYQKNQPAINFYQAQGFHIVDCAWQDETQLPTWIMSWPVVQTL"
Result: NOT MET

Problem: Try the sequence "MKKMLLATALALLITGCAQQTFTVQNKQTAVAPKETITHHFFVSGIGQKKTVDAAKICGGAENVVKTETQQTFVNGLLGFITLGIYTPLEARVYCSK"
Result: MET

Problem: Try the sequence "MIDFGNFYSLIAKNHLSHWLETLPAQIANWQREQQHGLFKQWSNAVEFLPEIKPYRLDLLHSVTAESEEPLSAGQIKRIETLMRNLMPWRKGPFSLYGVNIDTEWRSDWKWDRVLPHLSDLTGRTILDVGCGSGYHMWRMIGAGAHLAVGIDPTQLFLCQFEAVRKLLGNDQRAHLLPLGIEQLPALKAFDTVFSMGVLYHRRSPLEHLWQLKDQLVNEGELVLETLVIDGDENTVLVPGDRYAQMRNVYFIPSALALKNWLKKCGFVDIRIADVSVTTTEEQRRTEWMVTESLADFLDPHDPGKTVEGYPAPKRAVLIARKP"
Result: MET

Problem: What do you have for MIKQRTLKRIVQATGVGLHTGKKVTLTLRPAPANTGVIYRRTDLNPPVDFPADAKSVRDTMLCTCLVNEHDVRISTVEHLNAALAGLGIDNIVIEVNAPEIPIMDGSAAPFVYLLLDAGIDELNCAKKFVRIKETVRVEDGDKWAEFKPYNGFSLDFTIDFNHPAIDSSNQRYAMNFSADAFMRQISRARTFGFMRDIEYLQSRGLCLGGSFDCAIVVDDYRVLNEDGLRFEDEFVRHKMLDAIGDLFMCGHNIIGAFTAYKSGHALNNKLLQAVLAKQEAWEYVTFQDDAELPLAFKAPSAVLA [P0A725] ?
Result: NOT MET

Problem: What about this sequence? MNTTLFRWPVRVYYEDTDAGGVVYHASYVAFYERARTEMLRHHHFSQQALMAERVAFVVRKMTVEYYAPARLDDMLEIQTEITSMRGTSLVFTQRIVNAENTLLNEAEVLVVCVDPLKMKPRALPKSIVAEFKQ [P0A8Z3]
Result: MET
